Biological target: T1, control peptide A2E-17/HLA-A*02:01 complex on T2 cells (member of the P19 mixture) (human)
T1 construct: Loaded on T2 cells as part of the mixture of 19 control peptides
Assay: flow cytometry, phage on T2 cells
outcome-measure: binding result

binder	observed-value
PSA146/HLA-A*02:01-specific scFv phage clone #9 (scFv, V domains shown) VH: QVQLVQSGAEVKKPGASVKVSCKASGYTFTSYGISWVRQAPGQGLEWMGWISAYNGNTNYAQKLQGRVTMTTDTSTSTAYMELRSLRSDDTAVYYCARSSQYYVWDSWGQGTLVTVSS VL: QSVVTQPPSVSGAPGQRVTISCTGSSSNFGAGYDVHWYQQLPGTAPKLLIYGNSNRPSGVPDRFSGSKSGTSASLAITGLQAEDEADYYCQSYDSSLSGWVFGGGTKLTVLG	no binding
PSA146/HLA-A*02:01-specific scFv phage clone #14 (scFv, V domains shown) VH: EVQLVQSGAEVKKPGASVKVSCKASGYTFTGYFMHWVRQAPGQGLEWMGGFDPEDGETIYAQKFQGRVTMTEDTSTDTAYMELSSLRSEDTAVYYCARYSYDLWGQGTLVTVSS VL: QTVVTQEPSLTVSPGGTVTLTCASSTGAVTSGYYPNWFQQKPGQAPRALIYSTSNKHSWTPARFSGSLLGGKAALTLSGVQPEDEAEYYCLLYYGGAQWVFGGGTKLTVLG	no binding
PSA146/HLA-A*02:01-specific scFv phage clone #13 (scFv, V domains shown) VH: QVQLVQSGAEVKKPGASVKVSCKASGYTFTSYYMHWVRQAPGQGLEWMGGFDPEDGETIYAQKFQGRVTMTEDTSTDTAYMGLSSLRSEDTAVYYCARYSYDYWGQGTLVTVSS VL: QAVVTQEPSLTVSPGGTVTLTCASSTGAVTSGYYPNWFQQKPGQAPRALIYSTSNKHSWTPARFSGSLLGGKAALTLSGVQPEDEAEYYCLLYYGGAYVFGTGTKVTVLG	no binding
